Molecular target: SOS1/KRAS-G12D (Homo sapiens (Human), UniProt Q07889)
Sequence (Q07889 564-1049 limits assumed): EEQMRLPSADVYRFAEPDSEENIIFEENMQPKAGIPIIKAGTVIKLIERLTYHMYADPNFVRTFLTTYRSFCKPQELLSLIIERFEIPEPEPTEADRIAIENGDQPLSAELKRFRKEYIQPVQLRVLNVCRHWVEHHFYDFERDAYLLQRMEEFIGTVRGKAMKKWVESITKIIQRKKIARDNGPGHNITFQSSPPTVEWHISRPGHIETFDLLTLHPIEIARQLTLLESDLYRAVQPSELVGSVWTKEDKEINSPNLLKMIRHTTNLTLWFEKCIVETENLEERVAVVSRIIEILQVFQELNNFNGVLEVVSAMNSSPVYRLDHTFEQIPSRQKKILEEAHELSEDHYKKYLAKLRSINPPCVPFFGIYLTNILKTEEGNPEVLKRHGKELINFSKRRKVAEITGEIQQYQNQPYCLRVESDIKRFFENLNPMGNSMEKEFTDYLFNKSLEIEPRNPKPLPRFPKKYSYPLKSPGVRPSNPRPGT
Assay: SOS1/KRAS-G12D binding inhibition assay (AlphaScreen)
Conditions: GST-SOS1 and 6*His KRAS-G12D, read-out: KrasG12D/SOS1 binding IC50
pIC50: −log10 of the molar value.
parameterMeasured: pIC50

- compound: "CC(=O)N1CCN(c2ccc3nccc(N[C@H](C)c4cccc(C(F)(F)F)c4C)c3c2)C[C@H]1C [Compound 51]"
  studySystem: "SOS1/KRAS-G12D (Homo sapiens (Human), UniProt Q07889)"
  pIC50: "7.00 to 8.00"
- compound: "Cc1cc(N[C@H](C)c2cccc(C(F)(F)F)c2C)c2cc(N3CCNCC3)ccc2n1 [Compound 1]"
  studySystem: "SOS1/KRAS-G12D (Homo sapiens (Human), UniProt Q07889)"
  pIC50: "7.00 to 8.00"
- compound: "Cc1c([C@@H](C)Nc2ccnc3ccc(N4CCN[C@H](C)C4)cc23)cccc1C(F)(F)F [Compound 50]"
  studySystem: "SOS1/KRAS-G12D (Homo sapiens (Human), UniProt Q07889)"
  pIC50: "7.00 to 8.00"
- compound: "Cc1c([C@@H](C)Nc2ccnc3ccc(N4CCC(N(C)C)CC4)cc23)cccc1C(F)(F)F [Compound 32]"
  studySystem: "SOS1/KRAS-G12D (Homo sapiens (Human), UniProt Q07889)"
  pIC50: "7.00 to 8.00"

Suppose we examine the compound C[C@@H](Nc1ccnc2ccc(N3CCOCC3)cc12)c1cccc(C(F)F)c1F [Compound 48] ; what pIC50 value has been reported? ≥ 8.00

Query Cc1c([C@@H](C)Nc2ccnc3ccc(N4CCn5ncnc5C4)cc23)cccc1C(F)(F)F [Compound 25] next < 7.00

Query CC(=O)N1CCN(c2ccc3nccc(N[C@H](C)c4cccc(C(F)(F)F)c4C)c3c2)[C@@H](C)C1 [Compound 61] next < 7.00

Query CO[C@]1(c2ccc3nccc(N[C@H](C)c4cccc(C(F)F)c4F)c3c2)CCN(C(=O)C2CC2)C1 [Compound 96] next ≥ 8.00

Query CC(=O)N1CC=C(c2ccc3nccc(N[C@H](C)c4cccc(C(F)F)c4F)c3c2)C1 [Compound 97] next 7.00 to 8.00

Query CO[C@@]1(c2ccc3nccc(N[C@H](C)c4cccc(C(F)F)c4F)c3c2)CCN(C(=O)N(C)C)C1 [Compound 99] next ≥ 8.00
